- tested-on: human GPR119 (hGPR119) (Homo sapiens)
- Construct: expressed in transfected cells
- Sequence (Q8TDV5 1-335): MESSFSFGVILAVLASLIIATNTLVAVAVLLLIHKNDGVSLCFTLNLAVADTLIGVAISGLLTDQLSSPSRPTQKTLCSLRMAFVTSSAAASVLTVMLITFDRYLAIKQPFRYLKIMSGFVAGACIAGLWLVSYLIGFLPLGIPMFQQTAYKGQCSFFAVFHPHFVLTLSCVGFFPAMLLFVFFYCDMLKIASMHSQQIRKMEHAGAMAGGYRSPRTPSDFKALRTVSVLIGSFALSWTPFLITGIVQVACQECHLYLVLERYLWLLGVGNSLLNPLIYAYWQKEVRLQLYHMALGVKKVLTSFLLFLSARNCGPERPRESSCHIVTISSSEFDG
- protocol-description: cAMP accumulation assay (cAMP Gs dynamic HTRF kit)
- Format: cell-based
- run-conditions: 1 h; CHO-K1 cells stably expressing hGPR119; % activity normalized to Max/Min controls; 4-parameter fit
Kindly state Emax for each of the entries shown.

IN: Item CCOc1cnc(N2CCC(CCCOc3ccc(CC(=O)N4CC[C@@H](CNCC(O)(CO)CO)C4)c(F)c3)CC2)nc1 [Example 153] has what recorded Emax?
OUT: ≥ 130%

IN: Continue with O=C(Cc1ccc(OCC2CC(C3CCN(c4ncc(Cl)cn4)CC3)C2)cc1F)N1CC(CNC[C@H](O)[C@@H](O)[C@H](O)[C@H](O)CO)C1 (stereo partly drawn) [Example 120]
OUT: 100 to 130%

IN: Continue with O=C(Cc1ccc(OCCCC2CCN(c3ncc(Cl)cn3)CC2)cc1F)N1CC[C@@H](CNC(CO)(CO)CO)C1 [Example 148]
OUT: ≥ 130%

IN: Continue with CC(C)OC(=O)N1CCC2(CC1)CC2CCCOc1cc(F)c(CC(=O)N2CC(CNC[C@H](O)[C@@H](O)[C@H](O)[C@H](O)CO)C2)c(F)c1 (stereo partly drawn) [Example 146]
OUT: 100 to 130%

IN: Continue with CCCc1cnc(N2CCC(CCCOc3cc(F)c(CC(=O)N4CC(CNC(CO)(CO)CO)C4)c(F)c3)CC2)nc1 [Example 76]
OUT: ≥ 130%

IN: Continue with O=C(Cc1ccc(OCCCC2CCN(c3ncc(Cl)cn3)CC2)cc1F)N1CC[C@@H](CNC[C@H](O)[C@@H](O)[C@H](O)[C@H](O)CO)C1 [Example 98]
OUT: 100 to 130%

Just for reference, patent US20230061736A1 is where these values come from.
